Molecular target: UCHL1 (Homo sapiens, UniProt P09936)
Sequence (P09936 whole entry): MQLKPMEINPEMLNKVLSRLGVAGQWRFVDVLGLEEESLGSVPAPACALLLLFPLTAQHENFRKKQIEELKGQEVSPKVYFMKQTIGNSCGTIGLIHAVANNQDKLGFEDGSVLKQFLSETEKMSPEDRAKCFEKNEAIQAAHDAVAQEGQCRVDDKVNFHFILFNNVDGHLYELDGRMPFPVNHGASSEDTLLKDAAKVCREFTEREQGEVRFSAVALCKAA
Assay: Fluorescence-based Ub-Rho deubiquitinase activity assay
Type: biochemical
Design: made in house
Details: 3 h of preincubation with UCHL1; technical triplicate, averages; read-out: IC50
Where a SMILES comes first, the peptide text is derived from it. [ ]: non-standard residue; d: D form. The star is where a group is joined. Cbz = O=C(OCc1ccccc1)*; CH2F = FC*
metric-name: IC50

- COC(=O)CC[C@H](NC(=O)[C@H](C)NC(=O)CNC(=O)OCc1ccccc1)C(=O)CF [Cpd 18] (Cbz-Gly-Ala-Glu(OMe)-CH2F): > 200 µM
- COC(=O)CC[C@H](NC(=O)[C@H](Cc1ccccc1)NC(=O)[C@@H](NC(=O)OCc1ccccc1)C(C)C)C(=O)CF [Cpd 28] (Cbz-Val-Phe-Glu(OMe)-CH2F): > 200 µM
- COC(=O)CC[C@H](NC(=O)[C@H](C)NC(=O)[C@H](NC(=O)OCc1ccccc1)C(C)C)C(=O)CF [Cpd 17] (Cbz-[dV]-Ala-Glu(OMe)-CH2F): > 200 µM
